From: PubChem BioAssay AID2284351

Recorded AC50, one value per entry.
subject_of_test: Peroxisome proliferator-activated receptor gamma (Homo sapiens)
run_description: ATG_hPPARg_EcoTox2: Attagene TRANS-FACTORIAL EcoTox-2 HepG2 Assay for human Peroxisome Proliferator-activated Receptor gamma (PPARg)
Calls of active or inactive are those of the source. How the source made its calls: active means hit-call score of the fitted dose curve at least 0.9, where 1 is the maximum; inactive means score below 0.9.
readout_type: AC50

- compound: "C=C(c1ccc(C(=O)O)cc1)c1cc2c(cc1C)C(C)(C)CCC2(C)C"
  subject_of_test: "Peroxisome proliferator-activated receptor gamma (Homo sapiens)"
  readout_type: "AC50"
  recorded_value: "1.1 µM (active)"
- compound: "CC(C)(Oc1ccc(C2CC2(Cl)Cl)cc1)C(=O)O (stereo not given)"
  subject_of_test: "Peroxisome proliferator-activated receptor gamma (Homo sapiens)"
  readout_type: "AC50"
  recorded_value: "37.3 µM (active)"
- compound: "CC(C)(Oc1ccc(Cl)cc1)C(=O)O"
  subject_of_test: "Peroxisome proliferator-activated receptor gamma (Homo sapiens)"
  readout_type: "AC50"
  recorded_value: "80.6 µM (active)"
- compound: "CC(C)(Oc1ccc(CCNC(=O)c2ccc(Cl)cc2)cc1)C(=O)O"
  subject_of_test: "Peroxisome proliferator-activated receptor gamma (Homo sapiens)"
  readout_type: "AC50"
  recorded_value: "14 µM (active)"
- compound: "Cc1nc(-c2ccc(C(F)(F)F)cc2)sc1C(=O)NCc1ccc(OC(C)(C)C(=O)O)cc1"
  subject_of_test: "Peroxisome proliferator-activated receptor gamma (Homo sapiens)"
  readout_type: "AC50"
  recorded_value: "1.29 µM (active)"
